Sourced from patent US20080139546A1

Test System: Human 5-HT1A Receptor (Homo sapiens)
Construct: expressed in transfected cells; host or cells: CHO cells (Chinese hamster ovary), stably transfected
Sequence (P08908 whole entry): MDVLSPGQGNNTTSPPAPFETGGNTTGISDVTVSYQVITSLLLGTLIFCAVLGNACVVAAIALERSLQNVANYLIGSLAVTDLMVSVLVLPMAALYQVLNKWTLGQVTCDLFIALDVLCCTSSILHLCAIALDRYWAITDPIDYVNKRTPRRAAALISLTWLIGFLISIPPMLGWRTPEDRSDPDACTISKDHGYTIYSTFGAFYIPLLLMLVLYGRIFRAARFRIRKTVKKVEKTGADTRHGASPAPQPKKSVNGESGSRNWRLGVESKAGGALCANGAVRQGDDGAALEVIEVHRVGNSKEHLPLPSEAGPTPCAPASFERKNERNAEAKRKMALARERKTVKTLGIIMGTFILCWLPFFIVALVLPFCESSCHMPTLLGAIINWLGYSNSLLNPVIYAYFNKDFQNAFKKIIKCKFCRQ
Test Summary: cAMP radioimmunoassay (RIA) in human 5-HT1A receptor cell line, inhibition of forskolin stimulated cAMP
Type: cell-based
Conditions: forskolin (1 μM) stimulated cAMP, stably transfected CHO cells; read-out: h5HT1A cAMP EC50 (nM) (Example 19)
Please assign Condition not met whenever EC50 is at or above 2 nM, and Condition met whenever it is below.

[[record]]
compound = "Cc1ccc2c3c(ccc2n1)OC[C@H](CNCCCN1CCOc2ccccc21)O3 [Example 6]"
group = "Condition met"

[[record]]
compound = "Cc1ccc2c3c(ccc2n1)OC[C@H](CNCCCCN1CCc2ccc(F)cc21)O3 [Example 14]"
group = "Condition met"


Lab note: EC50 threshold 2 nM. Does this compound come in strictly under it? Cc1ccc2c3c(ccc2n1)OC[C@H](CNCCCN1CCc2ccccc21)O3 [Example 5] Condition not met

Lab note: EC50 threshold 2 nM. Does this compound come in strictly under it? Cc1ccc2c3c(ccc2n1)OC[C@H](CNCCCN1CCc2cc(F)ccc21)O3 [Example 2] Condition not met

Lab note: EC50 threshold 2 nM. Does this compound come in strictly under it? Cc1ccc2c3c(ccc2n1)OC[C@H](CNCCCN1CCOc2ccc(F)cc21)O3 [Example 11] Condition met

Lab note: EC50 threshold 2 nM. Does this compound come in strictly under it? Cc1ccc2c3c(ccc2n1)OC[C@H](CNCCCN1CCCc2cc(F)ccc21)O3 [Example 8] Condition met

Lab note: EC50 threshold 2 nM. Does this compound come in strictly under it? Cc1ccc2c3c(ccc2n1)OC[C@H](CNCCCN(C)c1ccccc1Cl)O3 [Example 13] Condition not met

Lab note: EC50 threshold 2 nM. Does this compound come in strictly under it? Cc1ccc2c3c(ccc2n1)OC[C@H](CNCCCN1CCCc2cc(F)cc(F)c21)O3 [Example 9] Condition met

Lab note: EC50 threshold 2 nM. Does this compound come in strictly under it? Cc1ccc2c3c(ccc2n1)OC[C@H](CNCCCN1CCCc2cc(F)c(F)cc21)O3 [Example 7] Condition met

Lab note: EC50 threshold 2 nM. Does this compound come in strictly under it? Cc1ccc2c3c(ccc2n1)OC[C@H](CNCCCN1CCc2ccc(F)cc21)O3 [Example 3] Condition met

Lab note: EC50 threshold 2 nM. Does this compound come in strictly under it? Cc1ccc2c3c(ccc2n1)OC[C@H](CNCCCCN1CCCc2ccccc21)O3 [Example 15] Condition not met
